- TARGET: h-TGR5 (Homo sapiens, UniProt Q8TDU6)
- Construct: expressed in transfected cells
- Sequence (Q8TDU6 whole entry): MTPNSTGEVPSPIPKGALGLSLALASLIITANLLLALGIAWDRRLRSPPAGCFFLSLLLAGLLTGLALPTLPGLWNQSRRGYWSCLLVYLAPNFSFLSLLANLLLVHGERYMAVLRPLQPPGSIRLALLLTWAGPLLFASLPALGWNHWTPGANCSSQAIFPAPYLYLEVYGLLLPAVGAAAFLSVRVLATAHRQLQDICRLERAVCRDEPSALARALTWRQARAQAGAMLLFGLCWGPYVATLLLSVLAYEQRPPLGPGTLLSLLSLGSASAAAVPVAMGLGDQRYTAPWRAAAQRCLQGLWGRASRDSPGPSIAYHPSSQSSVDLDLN
- ASSAY_NAME: TGR5 cAMP Assay using Cisbio cAMP Dynamic2 htrf kit (hTGR5CRE-luc HEK 293 cells)
- Format: cell-based
- EXPERIMENTAL_PARAMETERS: h-TGR5 cAMP EC50, Table 1; read-out: cAMP (EC50)
pEC50: −log10 of the molar value.
RECORDED_METRIC: pEC50

Query: Kindly indicate its recorded pEC50. Item: CC(C)(c1ccc2onc(N)c2c1)c1cnc(SCc2c(F)cc(C(=O)O)cc2F)n1-c1ccc(F)cc1
Response: > 7.00

Query: Kindly indicate its recorded pEC50. Item: COc1cc(C(C)(C)c2cnc(SCc3c(F)cc(C(=O)NC4CCN(c5nnn[nH]5)CC4)cc3Cl)n2-c2ccc(F)cc2)ccc1Cl
Response: > 7.00

Query: Kindly indicate its recorded pEC50. Item: COc1cc(C(C)(C)c2cnc(SCc3c(F)cc(C#CCNC(=N)N)cc3F)n2-c2ccc(F)cc2)ccc1Cl
Response: > 7.00

Query: Kindly indicate its recorded pEC50. Item: COc1cc(C(C)(C)c2cnc(SCc3ccc(S(=O)(=O)NC(=O)NN4CCCC4)cc3Cl)n2-c2ccc(F)c(Cl)c2)ccc1Cl
Response: 6.00 to 7.00

Query: Kindly indicate its recorded pEC50. Item: CC(C)(c1ccc(F)c(Cl)c1)c1cnc(SCc2c(F)cccc2Cl)n1-c1ccc(F)cc1
Response: 6.00 to 7.00

====

- TARGET: h-TGR5 (Homo sapiens, UniProt Q8TDU6)
- Construct: expressed in transfected cells
- ASSAY_NAME: TGR5 cAMP Assay using Cisbio cAMP Dynamic2 htrf kit (hTGR5CRE-luc HEK 293 cells)
- Format: cell-based
- EXPERIMENTAL_PARAMETERS: h-TGR5 cAMP EC50, Table 1; read-out: cAMP (EC50)
Consider the following molecules and their measured EC50 readings.

- MOLECULE: "CC(C)(c1ccc(Cl)c(Cl)c1)c1cnc(SCc2ccc(S(=O)(=O)NC(=O)NN3CCCC3)cc2Cl)n1-c1ccc(F)cn1"
  TARGET: "h-TGR5 (Homo sapiens, UniProt Q8TDU6)"
  EC50: "100 to 1000 nM"
- MOLECULE: "CC(C)(c1ccc(S(C)(=O)=O)cc1)c1cnc(SCc2c(F)cc(C(=O)O)cc2F)n1-c1ccc(F)cn1"
  TARGET: "h-TGR5 (Homo sapiens, UniProt Q8TDU6)"
  EC50: "1000 to 10000 nM"

Query: Kindly indicate its recorded EC50. Item: CC(C)(c1ccc(F)c(F)c1)c1cnc(SCc2cc(C(=O)O)ccc2Cl)n1-c1ccc(F)cc1
Response: 100 to 1000 nM

Query: Kindly indicate its recorded EC50. Item: COc1cc(C(C)(C)c2cnc(SCc3c(F)ccc(S(N)(=O)=O)c3F)n2-c2ccc(F)cc2)ccc1Cl
Response: < 100 nM

Query: Kindly indicate its recorded EC50. Item: CC(C)(c1ccc(S(C)(=O)=O)cc1)c1cnc(SCc2ccc(S(=O)(=O)NC(=O)NN3CCCC3)cc2Cl)n1-c1ccc(F)c(F)c1
Response: 1000 to 10000 nM

Query: Kindly indicate its recorded EC50. Item: CC(C)(c1ccc(Cl)c(Cl)c1)c1cnc(SCC2CCN(c3nnn[nH]3)C2)n1-c1ccc(F)cc1 (stereo not shown)
Response: 1000 to 10000 nM
